# experimental.protocol: clinical
# condition.summary: both, human, plasma, topical or ocular
measured.attribute: AUC(0-t) (µg·h/mL)
Report the figure in µg·h/mL without appending any unit label.

Q) # AUC(0-t) lookup, item Cl.NCC(=O)CCC(=O)O
A) 0.577

----------
# experimental.protocol: clinical
# condition.summary: both, human, plasma, topical or ocular, 354 mg
measured.attribute: Cmax

Q) # Cmax lookup, item Cl.NCC(=O)CCC(=O)O [ALA]
A) < 110 ng/mL

----------
# experimental.protocol: clinical
# condition.summary: both, human, plasma, topical
measured.attribute: AUC(0-t) (ng·h/mL)
Report the figure in ng·h/mL without appending any unit label.

Q) # AUC(0-t) lookup, item Cl.NCC(=O)CCC(=O)O
A) 282
